system: antibodies in sera from SARS patients (sera 1a, 1b, 2, 6, 37, 62, London, SARS-yellow, SARS-green); assay type: binding, human; parameters: unit not given here
MEASURED_ATTRIBUTE: Binding of serum 37 to looped/cyclic peptides of protein X1 of SARS-CoV Urbani
# respond with the number and nothing more

Which Binding of serum 37 to looped/cyclic peptides of protein X1 of SARS-CoV Urbani is reported for this sequence? TQITTDTGIENATFF
0.4

What do you get for TTDTGIENATFFIFN ?
1.0

What do you get for VKDYVVVHGYFTEVY ?
0.6

What do you get for IHTIDGSSGVANPAM ?
0.3

What do you get for DYVVVHGYFTEVYYQ ?
0.7

What do you get for VVVHGYFTEVYYQLE ?
0.5

What do you get for PPNVQIHTIDGSSGV ?
0.6

What do you get for ITTDTGIENATFFIF ?
0.9

What do you get for QIHTIDGSSGVANPA ?
0.4

What do you get for IENATFFIFNKLVKD ?
0.5

What do you get for GIENATFFIFNKLVK ?
0.6

What do you get for EGDGISTPKLKEDYQ ?
0.3

What do you get for YQLESTQITTDTGIE ?
0.3

What do you get for QITTDTGIENATFFI ?
1.0

What do you get for YNSVTDTIVVTEGDG ?
0.4

What do you get for YVVVHGYFTEVYYQL ?
0.4

---

tested on: antibodies in sera from SARS patients (sera 1a, 1b, 2, 6, 37, 62, London, SARS-yellow, SARS-green); assay type: binding, human
MEASURED_ATTRIBUTE: Binding of serum 1a to linear peptide (PEPSCAN-ELISA)

Which Binding of serum 1a to linear peptide (PEPSCAN-ELISA) is reported for this sequence? EGSRGGSQASSRSSS
0.3

What do you get for GSSRGNSPARMASGG ?
0.4

What do you get for SKVSGKGQQQQGQTV ?
0.2

What do you get for VSGKGQQQQGQTVTK ?
1.2

What do you get for YNVTQAFGRRGPEQT ?
0.3

What do you get for KGQQQQGQTVTKKSA ?
0.3

What do you get for RSSSRSRGNSRNSTP ?
0.3

What do you get for LESKVSGKGQQQQGQ ?
0.3

---

system: antibodies in sera from SARS patients (sera 1a, 1b, 2, 6, 37, 62, London, SARS-yellow, SARS-green); assay type: binding, human; set-up: unit not given here
Where Binding of serum 37 to looped/cyclic peptides of protein N of SARS-CoV Urbani equals or exceeds 0.6, the correct label is true; where it does not, the label is false.

Reported Binding of serum 37 to looped/cyclic peptides of protein N of SARS-CoV Urbani reaches at least 0.6 for LTYHGAIKLDDKDPQ ?
false

What do you get for SNQRSAPRITFGGPT ?
true

What do you get for HGKEELRFPRGQGVP ?
false

What do you get for HIDAYKTFPPTEPKK ?
false

What do you get for IGMEVTPSGTWLTYH ?
true

What do you get for QAFGRRGPEQTQGNF ?
false

What do you get for RPQGLPNNTASWFTA ?
true

What do you get for GGPTDSTDNNQNGGR ?
false

What do you get for GTRNPNNNAATVLQL ?
true

What do you get for YRRATRRVRGGDGKM ?
false

What do you get for GRNGARPKQRRPQGL ?
false

What do you get for ASWFTALTQHGKEEL ?
false

What do you get for RSSSRSRGNSRNSTP ?
false

What do you get for PRWYFYYLGTGPEAS ?
true

What do you get for RRGPEQTQGNFGDQD ?
false

What do you get for SGTWLTYHGAIKLDD ?
true

What do you get for AAEASKKPRQKRTAT ?
false

What do you get for VTPSGTWLTYHGAIK ?
false

What do you get for ATEGALNTPKDHIGT ?
false

What do you get for PQGLPNNTASWFTAL ?
true

What do you get for KHWPQIAQFAPSASA ?
false

What do you get for LLNKHIDAYKTFPPT ?
false

What do you get for PEASLPYGANKEGIV ?
false

What do you get for KKDKKKKTDEAQPLP ?
false

What do you get for HGAIKLDDKDPQFKD ?
false

What do you get for YHGAIKLDDKDPQFK ?
false

What do you get for NPNNNAATVLQLPQG ?
true

What do you get for QIAQFAPSASAFFGM ?
true

What do you get for AFGRRGPEQTQGNFG ?
false

What do you get for VATEGALNTPKDHIG ?
false

What do you get for TPSGTWLTYHGAIKL ?
true

What do you get for YAEGSRGGSQASSRS ?
false

What do you get for SRIGMEVTPSGTWLT ?
false

What do you get for FTALTQHGKEELRFP ?
false

---

test system: antibodies in sera from SARS patients (sera 1a, 1b, 2, 6, 37, 62, London, SARS-yellow, SARS-green); assay type: binding, human; set-up: unit not given here
Field: Binding of serum 6 to linear peptides of protein X4 of SARS-CoV Urbani. Provide a value for each of the sequences that follow.
# respond with the number and nothing more

Which Binding of serum 6 to linear peptides of protein X4 of SARS-CoV Urbani is reported for this sequence? IVFTSCELYHYQECV
0.8

What do you get for QQELYSPLFLIVAAL ?
0.7

What do you get for LVFLILCFTIKRKTE ?
0.7

What do you get for NKFALTCTSTHFAFA ?
0.3

What do you get for FALTCTSTHFAFACA ?
0.5

What do you get for FACADGTRHTYQLRA ?
0.4

What do you get for LFLTLIVFTSCELYH ?
0.5

What do you get for MKIILFLTLIVFTSC ?
0.4

What do you get for YSPLFLIVAALVFLI ?
0.5

What do you get for QLRARSVSPKLFIRQ ?
0.9

What do you get for LKEPCPSGTYEGNSP ?
0.3

What do you get for TSTHFAFACADGTRH ?
0.7

What do you get for KEPCPSGTYEGNSPF ?
0.4

---

test system: rabbit serum obtained by immunizing a rabbit with the SARS-CoV strain Frankfurt 1; assay type: binding; design: unit not given here
MEASURED_ATTRIBUTE: Binding of a rabbit serum to looped peptides
# respond with the number and nothing more

Which Binding of a rabbit serum to looped peptides is reported for this sequence? FQFICNLLLLFVTIY
0.0

What do you get for KKVSTNLCTHSFRKK ?
0.1

What do you get for LHKLLQTLVLKMLHS ?
0.4

What do you get for GSITAQPVKIDNASP ?
0.4

What do you get for VTAFQHQNSKKTTKL ?
0.4

What do you get for LLYDANYFVCWHTHN ?
0.5

What do you get for LYMAISPKFTTSLSL ?
0.5

What do you get for LIYFLQCINACRIIM ?
0.3

What do you get for DRHSGVKDYVVVHGY ?
0.5

What do you get for QIHTIDGSSGVANPA ?
0.3

What do you get for MLHSSSLTSLLKTHR ?
0.5

What do you get for ACLCKHKKVSTNLCT ?
0.3

What do you get for GISTPKLKEDYQIGG ?
0.3

What do you get for TATIPLQASLPFGWL ?
0.6

What do you get for VLKMLHSSSLTSLLK ?
0.3

What do you get for FVCWHTHNYDYCIPY ?
0.7

What do you get for MDLFMRFFTLGSITA ?
0.5

What do you get for DYCIPYNSVTDTIVV ?
0.5

What do you get for YQIGGYSEDRHSGVK ?
0.5

What do you get for EAQFLYLYALIYFLQ ?
0.5

What do you get for CKHKKVSTNLCTHSF ?
0.5

What do you get for RFFTLGSITAQPVKI ?
0.5

What do you get for VKIDNASPASTVHAT ?
0.3

What do you get for LVKDPPNVQIHTIDG ?
0.5

What do you get for IPYNSVTDTIVVTEG ?
0.3

What do you get for TMSLYMAISPKFTTS ?
0.5

What do you get for ASLPFGWLVIGVAFL ?
0.3

What do you get for TTVYHITVSQIQLSL ?
0.4

What do you get for GSSGVANPAMDPIYD ?
0.5

What do you get for PPNVQIHTIDGSSGV ?
0.5

What do you get for KHKKVSTNLCTHSFR ?
0.0

What do you get for KRWQLALYKGFQFIC ?
0.8

What do you get for HSGVKDYVVVHGYFT ?
0.6

What do you get for ESTQITTDTGIENAT ?
0.5

What do you get for SRVKNLNSSEGVPDL ?
0.0

What do you get for YHITVSQIQLSLLKV ?
0.3

What do you get for YQLESTQITTDTGIE ?
0.4

What do you get for YSRVKNLNSSEGVPD ?
0.0
